System: HTLV-1
ASSAY_NAME: Alu-qPCR of integrated provirus in HTLV-1 infected Jurkat cells
Type: cell-based
EXPERIMENTAL_SETUP: normalized to GAPDH; Replicate 3
Integrated provirus by Alu-qPCR (DMSO = 100%) strictly under 2% means Fulfilled; at 2% or over means Not fulfilled.

Nc1c(C(=O)NCc2ccc(F)cc2F)c(=O)n(O)c2ncc(CCC(=O)NCCO)cc12 ... Not fulfilled
Nc1c(C(=O)NCc2ccc(F)cc2F)c(=O)n(O)c2ncccc12 ... Fulfilled
CN(C)C(=O)CCc1cnc2c(c1)c(N)c(C(=O)NCc1ccc(F)cc1F)c(=O)n2O ... Fulfilled
COC(=O)CCc1cnc2c(c1)c(N)c(C(=O)NCc1ccc(F)cc1F)c(=O)n2O ... Fulfilled
CC(C)n1c(C(=O)N(C)C)c2c(c(O)c1=O)C(=O)N(Cc1ccc(F)c(Cl)c1)CC2 [XZ236, reference compound] ... Not fulfilled

Exam item: Integrated provirus by Alu-qPCR (DMSO = 100%) strictly < 2% for this compound? "Nc1c(C(=O)NCc2ccc(F)cc2F)c(=O)n(O)c2ncc(CCS(=O)(=O)c3ccccc3)cc12"
Marked response: Not fulfilled

Exam item: Integrated provirus by Alu-qPCR (DMSO = 100%) strictly < 2% for this compound? "Nc1c(C(=O)NCc2ccc(F)cc2F)c(=O)n(O)c2ncc(CCCO)cc12"
Marked response: Fulfilled

---

TGT: recombinant HTLV-1 IN (Human T-cell leukemia virus 1)
Construct: made in house
ASSAY_NAME: In vitro integration strand transfer assay with HTLV-1 IN
Assay type: biochemical
EXPERIMENTAL_SETUP: integrase strand-transfer drug titration, n = 3; read-out: HTLV-1 IC50 ± stdev
MEASURE_NAME: IC50 (nM)
Supply the numeric figure in nM, leaving out any unit text.

CC(C)NC(=O)/C=C/c1cnc2c(c1)c(N)c(C(=O)NCc1ccc(F)cc1F)c(=O)n2O ... 182
Nc1c(C(=O)NCc2ccc(F)cc2F)c(=O)n(O)c2ncc(-c3ccccc3)cc12 ... 411
CN(C)C(=O)CCc1cnc2c(c1)c(N)c(C(=O)NCc1ccc(F)cc1F)c(=O)n2O ... 120
Nc1c(C(=O)NCc2ccc(F)cc2F)c(=O)n(O)c2ncc(CCCCCO)cc12 ... 226
Nc1c(C(=O)NCc2ccc(F)cc2F)c(=O)n(O)c2ncc(CCC(=O)NCCO)cc12 ... 132

Exam item: Using the record for "O=C(NCc1ccc(F)cc1F)c1c(NCCO)c2cccnc2n(O)c1=O" , report its IC50.
Marked response: 397

Exam item: Using the record for "Nc1c(C(=O)NCc2ccc(F)cc2F)c(=O)n(O)c2ncc(CCCO)cc12" , report its IC50.
Marked response: 155

Exam item: Using the record for "COC(=O)CCc1cnc2c(c1)c(N)c(C(=O)NCc1ccc(F)cc1F)c(=O)n2O" , report its IC50.
Marked response: 204

Exam item: Using the record for "Nc1c(C(=O)NCc2ccc(F)cc2F)c(=O)n(O)c2ncccc12" , report its IC50.
Marked response: 210

---

Test system: HTLV-1
ASSAY_NAME: MT-2-Jurkat cell-to-cell HTLV-1 infection, proviral load by qPCR
Format: cell-based
EXPERIMENTAL_SETUP: Primate T-lymphotropic virus 1, read-out: HTLV-1 infection EC50, Replicate 2
MEASURE_NAME: pEC50
By convention, pEC50 is the negative base-10 log of a molar concentration.

Exam item: pEC50 of "CN(C)C(=O)CCc1cnc2c(c1)c(N)c(C(=O)NCc1ccc(F)cc1F)c(=O)n2O" on HTLV-1?
Marked response: 8.72

---

TGT: recombinant HTLV-1 IN (Human T-cell leukemia virus 1, UniProt P03362)
Construct: made in house
Sequence (P03362 1168-1462): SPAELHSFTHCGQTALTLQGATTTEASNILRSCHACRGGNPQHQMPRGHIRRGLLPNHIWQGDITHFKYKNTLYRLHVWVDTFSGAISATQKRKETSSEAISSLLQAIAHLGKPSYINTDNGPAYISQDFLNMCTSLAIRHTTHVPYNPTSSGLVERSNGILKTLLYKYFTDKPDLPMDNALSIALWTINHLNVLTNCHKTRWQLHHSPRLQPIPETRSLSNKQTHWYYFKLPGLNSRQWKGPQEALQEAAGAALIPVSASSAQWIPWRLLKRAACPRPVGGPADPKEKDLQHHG
ASSAY_NAME: In vitro integration strand transfer assay with HTLV-1 IN
Assay type: biochemical
EXPERIMENTAL_SETUP: INSTI at 634 nM; Replicate 1
MEASURE_NAME: HTLV-1 IN strand transfer activity (No drug = 100) (%)
Supply the numeric figure in %, leaving out any unit text.

O=C(O)/C(O)=C/C(=O)c1cc(OCc2ccccc2)cc(OCc2ccccc2)c1 [XZ320, reference compound] ... 35.3455
Nc1c(C(=O)NCc2ccc(F)cc2F)c(=O)n(O)c2ncc(CCCO)cc12 [XZ423] ... 5.722
O=C1c2ccc(O)c(O)c2C(=O)N1Cc1ccc(F)c(Cl)c1 [XZ89] ... 87.9286

Exam item: Using the record for Nc1c(C(=O)NCc2ccc(F)cc2F)c(=O)n(O)c2ncc(CCCOCCO)cc12 [XZ432] , report its HTLV-1 IN strand transfer activity (No drug = 100).
Marked response: 18.6132

Exam item: Using the record for O=C(NN1Cc2ccc(O)c(O)c2C1=O)c1cccc(O)c1O [XZ49] , report its HTLV-1 IN strand transfer activity (No drug = 100).
Marked response: 94.3672

---

Test system: HTLV-1
ASSAY_NAME: Alu-qPCR of integrated provirus in HTLV-1 infected Jurkat cells
Type: cell-based
EXPERIMENTAL_SETUP: normalized to GAPDH; Replicate 1
MEASURE_NAME: Integrated provirus by Alu-qPCR (DMSO = 100%)
Supply the numeric figure in %, leaving out any unit text.

CN(C)C(=O)CCc1cnc2c(c1)c(N)c(C(=O)NCc1ccc(F)cc1F)c(=O)n2O ... 0.2536
CC(C)n1c(C(=O)N(C)C)c2c(c(O)c1=O)C(=O)N(Cc1ccc(F)c(Cl)c1)CC2 [XZ236, reference compound] ... 4.2364
Nc1c(C(=O)NCc2ccc(F)cc2F)c(=O)n(O)c2ncc(CCS(=O)(=O)c3ccccc3)cc12 ... 13.9354
Nc1c(C(=O)NCc2ccc(F)cc2F)c(=O)n(O)c2ncc(CCC(=O)NCCO)cc12 ... 25.215
Nc1c(C(=O)NCc2ccc(F)cc2F)c(=O)n(O)c2ncc(CCCO)cc12 ... 2.519
Nc1c(C(=O)NCc2ccc(F)cc2F)c(=O)n(O)c2ncccc12 ... 4.1902

# context switch: different compound, same Integrated provirus by Alu-qPCR (DMSO = 100%)
Exam item: Using the record for "COC(=O)CCc1cnc2c(c1)c(N)c(C(=O)NCc1ccc(F)cc1F)c(=O)n2O" , report its Integrated provirus by Alu-qPCR (DMSO = 100%).
Marked response: 0.3355

---

Recorded pIC50 by entry
TGT: recombinant HTLV-1 IN (Human T-cell leukemia virus 1, UniProt P03362)
Construct: made in house
ASSAY_NAME: In vitro integration strand transfer assay with HTLV-1 IN
Format: biochemical
EXPERIMENTAL_SETUP: Replicate 3; read-out: HTLV-1 IN strand transfer IC50
By convention, pIC50 is the negative base-10 log of a molar concentration.

Exam item: Using the record for CC(C)n1c(C(=O)N(C)C)c2c(c(O)c1=O)C(=O)N(Cc1ccc(F)c(Cl)c1)CC2 [XZ236, reference compound] , report its pIC50.
Marked response: 6.52

Exam item: Using the record for "COC(=O)CCc1cnc2c(c1)c(N)c(C(=O)NCc1ccc(F)cc1F)c(=O)n2O" , report its pIC50.
Marked response: 6.64

Exam item: Using the record for "Nc1c(C(=O)NCc2ccc(F)cc2F)c(=O)n(O)c2ncc(CCC(=O)NCCO)cc12" , report its pIC50.
Marked response: 6.97

Exam item: Using the record for "Nc1c(C(=O)NCc2ccc(F)cc2F)c(=O)n(O)c2ncccc12" , report its pIC50.
Marked response: 6.92

Exam item: Using the record for "Nc1c(C(=O)NCc2ccc(F)cc2F)c(=O)n(O)c2ncc(CCCO)cc12" , report its pIC50.
Marked response: 6.81

---

TGT: recombinant HTLV-1 IN (Human T-cell leukemia virus 1)
Construct: made in house
ASSAY_NAME: In vitro integration strand transfer assay with HTLV-1 IN
Type: biochemical
EXPERIMENTAL_SETUP: INSTI at 634 nM; Replicate 1
Recorded HTLV-1 IN strand transfer activity (No drug = 100) by entry
Supply the numeric figure in %, leaving out any unit text.

Please review the following examples before continuing.
Nc1c(C(=O)NCc2ccc(F)cc2F)c(=O)n(O)c2ncc(CCC(=O)NCCO)cc12 ... 5.498
Cc1c2c(c(O)c(=O)n1C)C(=O)N(Cc1ccc(F)c(Cl)c1)C2=O ... 98.3269
Nc1c(C(=O)NCc2ccc(F)cc2F)c(=O)n(O)c2ncc(-c3ccccc3)cc12 ... 20.0015
Nc1c(C(=O)NCc2ccc(F)cc2F)c(=O)n(O)c2ncc(CCCCCCO)cc12 ... 14.449
O=C(NNC(=O)c1cccc(O)c1O)c1cccc(O)c1O ... 99.084

Exam item: HTLV-1 IN strand transfer activity (No drug = 100) of "[N-]=[N+]=NCc1cccc(C(=O)/C=C(\O)C(=O)O)c1" on recombinant HTLV-1 IN (Human T-cell leukemia virus 1)?
Marked response: 88.4055

Exam item: HTLV-1 IN strand transfer activity (No drug = 100) of "Nc1c(C(=O)NCc2ccc(F)cc2F)c(=O)n(O)c2ncccc12" on recombinant HTLV-1 IN (Human T-cell leukemia virus 1)?
Marked response: 12.8154

Exam item: HTLV-1 IN strand transfer activity (No drug = 100) of "COC(=O)c1c(Nc2ccc(-c3ccc(N)cc3)cc2)c2cccnc2n(O)c1=O" on recombinant HTLV-1 IN (Human T-cell leukemia virus 1)?
Marked response: 112.032

Exam item: HTLV-1 IN strand transfer activity (No drug = 100) of "COC(=O)CCc1c2c(c(O)c(=O)n1C(C)C)C(=O)N(Cc1ccc(F)c(Cl)c1)C2=O" on recombinant HTLV-1 IN (Human T-cell leukemia virus 1)?
Marked response: 93.628
